Tested on: 439559-082-T-J2-PDC spheroids viability;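 note: spheroids exposed to the agents for 7 days before readout; percent of luminescence signal in DMSO vehicle wells taken as 100% viability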
Test: Anticancer human tumor 439559-082-T-J2-PDC patient-derived colon adenocarcinoma cell line growth inhibition [GQUAD]
Settings: second compound 0.0316 µM; first compound 3.16 µM; stronger effect = lower value
Would you kindly list viability, T/C for each of these compounds?
Use % as the unit, but write only the number.

Incoming: Given the entry O=C(c1cc(Cc2n[nH]c(=O)c3ccccc23)ccc1F)N1CCN(C(=O)C2CC2)CC1 + Cc1cnc(CNC(=O)c2c(=O)c3ccc(N4CCCN(C)CC4)nc3n3c2sc2ccccc23)cn1 , report its measured viability, T/C.
Outgoing: 96.8

Incoming: Again, but for COc1ccc([C@@H](O)c2cc(-c3ncnc4cc(N5CCOCC5)ccc34)c(F)cc2Cl)nn1 + CN(C)c1ccc(Nc2c3ccc(NC(=O)CCN4CCCC4)cc3nc3cc(NC(=O)CCN4CCCC4)ccc23)cc1
Outgoing: 79.5

Incoming: Again, but for CC1COCCN1c1cc(-c2ccnn2C)c2ccnc(-c3ccn[nH]3)c2n1 (stereo not drawn) + Cc1[nH]c2ccc(F)cc2c1-c1nc2c3cccnc3c3ncccc3c2[nH]1
Outgoing: 35.8
